- procedure.text: Thermodynamic solubility in pH 7 buffer
- Assay type: physicochemical
- experimental.conditions: read-out: Therm_solubility
property: solubility thermodynamic (µM)

{"columns": ["compound", "u", "solubility thermodynamic"],
 "data": [
  ["C[C@@H]1Cc2nn3c(c2CN1C(=O)Nc1ccc(F)c(C#N)c1)C(=O)N(C)C[C@@H](F)C3", "µM", 72],
  ["CN1CC(F)Cn2nc3c(c2C1=O)CN(C(=O)Nc1ccc(F)c(C(F)(F)F)c1)CC3 (racemic)", "µM", 175],
  ["CN1CC(N(C)C)Cn2nc3c(c2C1=O)CN(C(=O)Nc1ccc(F)c(Cl)c1)CC3 (racemic)", "µM", 187],
  ["CN1CC(F)Cn2nc3c(c2C1=O)CN(C(=O)Nc1ccc(F)c(C#N)c1)CC3 (racemic)", "µM", 179],
  ["CN1OC(CO)Cn2nc3c(c2C1=O)CN(C(=O)Nc1ccc(F)c(Cl)c1)CC3 (racemic)", "µM", 169],
  ["CN1CCn2nc3c(c2C1=O)CN(C(=O)Nc1ccc(F)c(Cl)c1)CC3", "µM", 179],
  ["CN1CCC(CO)n2nc3c(c2C1=O)CN(C(=O)Nc1ccc(F)c(Cl)c1)CC3 (racemic)", "µM", 195],
  ["CC1CN(C)C(=O)c2c3c(nn2C1)CCN(C(=O)Nc1ccc(F)c(Cl)c1)C3 (racemic)", "µM", 182],
  ["CN1C(=O)c2c3c(nn2CCC1CO)CCN(C(=O)Nc1ccc(F)c(Cl)c1)C3 (racemic)", "µM", 189],
  ["CN1CCCn2nc3c(c2C1=O)CN(C(=O)Nc1ccc(F)c(Cl)c1)CC3", "µM", 195],
  ["CN1CC(OCC(F)F)Cn2nc3c(c2C1=O)CN(C(=O)Nc1ccc(F)c(Cl)c1)CC3 (racemic)", "µM", 181],
  ["CN1CC(CO)Cn2nc3c(c2C1=O)CN(C(=O)Nc1ccc(F)c(Cl)c1)CC3 (racemic)", "µM", 191],
  ["CN1CC(F)(F)Cn2nc3c(c2C1=O)CN(C(=O)Nc1ccc(F)c(Cl)c1)CC3", "µM", 181],
  ["CN1CC(F)Cn2nc3c(c2C1=O)CN(C(=O)Nc1ccc(F)c(Cl)c1)CC3 (racemic)", "µM", 183],
  ["CN1CC(F)Cn2nc3c(c2C1=O)CN(C(=O)Nc1ccnc(Br)c1F)CC3 (racemic)", "µM", 170],
  ["CN1CC(F)Cn2nc3c(c2C1=O)CN(C(=O)Nc1ccc(F)c(Br)c1)CC3 (racemic)", "µM", 191],
  ["CN1CC(C(F)F)Cn2nc3c(c2C1=O)CN(C(=O)Nc1ccc(F)c(Cl)c1)CC3 (racemic)", "µM", 175]
]}
